// data source = patent US9187458B2

system: NCI-H460 cells; assay: NCI-H460 Cell Growth Inhibition Test (MTT Assay); format: cell-based; conditions: Homo sapiens, 72 h incubation
Flag rule - IC50 less than 1000 nM flags YES; the remaining entries get NO.

compound: CN(C)C/C=C/C(=O)Nc1cc2c(Nc3ccc(OCc4cccc(F)c4)c(Cl)c3)c(C#N)cnc2cc1OC1CCOC1 (stereo not shown) [Example 9]
target_desc: NCI-H460 cells
assigned_category: NO
//
compound: CN(C)C/C=C/C(=O)Nc1cc2c(Nc3cccc(Br)c3)c(C#N)cnc2cc1OC1CCOC1 (stereo not shown) [Example 7]
target_desc: NCI-H460 cells
assigned_category: YES
//
compound: Cc1ccccc1COc1ccc(Nc2c(C#N)cnc3cc(OC4CCOC4)c(NC(=O)/C=C/CN(C)C)cc23)cc1Cl (stereo not shown) [Example 17]
target_desc: NCI-H460 cells
assigned_category: NO
//
compound: CN(C)C/C=C/C(=O)Nc1cc2c(Nc3ccc(OCc4ccc(Cl)cc4)c(Cl)c3)c(C#N)cnc2cc1OC1CCOC1 (stereo not shown) [Example 16]
target_desc: NCI-H460 cells
assigned_category: NO
//
compound: C#Cc1cccc(Nc2c(C#N)cnc3cc(O[C@@H]4CCOC4)c(NC(=O)/C=C/CN(C)C)cc23)c1 [Example 141]
target_desc: NCI-H460 cells
assigned_category: NO
//
compound: CN(C)C/C=C/C(=O)Nc1cc2c(Nc3ccc(OCc4ccc(C(C)(C)C)cc4)c(Cl)c3)c(C#N)cnc2cc1OC1CCOC1 (stereo not shown) [Example 14]
target_desc: NCI-H460 cells
assigned_category: YES

---

system: CCRF-CEM/T cells; experiment: CCRF-CEM/T Cell Growth Inhibition Test (MTT Assay); type: cell-based; settings: Homo sapiens, CCRF-CEM/T cells (resistant to paclitaxel), 72 h incubation
pIC50: −log10 of the molar value.
# reported pIC50; entries follow

compound: C#Cc1cccc(Nc2c(C#N)cnc3cc(O[C@@H]4CCOC4)c(NC(=O)/C=C/CN(C)C)cc23)c1 [Example 141]
pIC50: 5.04
--
compound: N#Cc1cnc2cc(O[C@H]3CCOC3)c(NC(=O)/C=C/CN3CCCCC3)cc2c1Nc1ccc(OCc2ccccn2)c(Cl)c1 [Example 151]
pIC50: 5.44
--
compound: CN(C)C/C=C/C(=O)Nc1cc2c(Nc3ccc(F)c(Cl)c3)c(C#N)cnc2cc1O[C@H]1CCOC1 [Example 142]
pIC50: 5.18
--
compound: CN(C)C/C=C/C(=O)Nc1cc2c(Nc3ccc(OCc4ccccn4)c(Cl)c3)c(C#N)cnc2cc1OC1CCOC1 (centres unmarked) [Example 2]
pIC50: 5.74
--
compound: CN(C)C/C=C/C(=O)Nc1cc2c(Nc3ccc(OCc4ccccn4)c(Cl)c3)c(C#N)cnc2cc1O[C@@H]1CCOC1 [Example 139]
pIC50: 5.85
--
compound: CN(C)C/C=C/C(=O)Nc1cc2c(Nc3ccc(OCc4cccc(F)c4)c(Cl)c3)c(C#N)cnc2cc1O[C@H]1CCOC1 [Example 158]
pIC50: 5.96
--
compound: CCN(CC)C/C=C/C(=O)Nc1cc2c(Nc3ccc(OCc4ccccn4)c(Cl)c3)c(C#N)cnc2cc1O[C@H]1CCOC1 [Example 150]
pIC50: 5.42
--
compound: CN(C)C/C=C/C(=O)Nc1cc2c(Nc3ccc(F)c(Cl)c3)c(C#N)cnc2cc1OC1CCOC1 (centres unmarked) [Example 4]
pIC50: 5.24
--
compound: C#Cc1cccc(Nc2c(C#N)cnc3cc(OC4CCOC4)c(NC(=O)/C=C/CN(C)C)cc23)c1 (centres unmarked) [Example 5]
pIC50: 5.05
--
compound: CN(C)C/C=C/C(=O)Nc1cc2c(Nc3ccc(OCc4ccccn4)c(Cl)c3)c(C#N)cnc2cc1O[C@H]1CCOC1 [Example 138]
pIC50: 5.25
--
compound: C#Cc1cccc(Nc2c(C#N)cnc3cc(O[C@H]4CCOC4)c(NC(=O)/C=C/CN(C)C)cc23)c1 [Example 140]
pIC50: 5.10

---

A short record of GI50 observed with SW620 cells follows.

molecule: CN(C)C/C=C/C(=O)Nc1cc2c(Nc3ccc(OCc4ccccn4)c(Cl)c3)c(C#N)cnc2cc1O[C@@H]1CCOC1 [Example 139]
target_desc: SW620 cells
unit_string: nM
GI50: 1900

molecule: C#Cc1cccc(Nc2c(C#N)cnc3cc(O[C@@H]4CCOC4)c(NC(=O)/C=C/CN(C)C)cc23)c1 [Example 141]
target_desc: SW620 cells
unit_string: nM
GI50: 1400

molecule: CN(C)C/C=C/C(=O)Nc1cc2c(Nc3ccc(OCc4cccc(F)c4)c(Cl)c3)c(C#N)cnc2cc1OC1CCOC1 (stereo not drawn) [Example 9]
target_desc: SW620 cells
unit_string: nM
GI50: 2100

molecule: C#Cc1cccc(Nc2c(C#N)cnc3cc(OC4CCOC4)c(NC(=O)/C=C/CN(C)C)cc23)c1 (stereo not drawn) [Example 5]
target_desc: SW620 cells
unit_string: nM
GI50: 1680

molecule: CN(C)C/C=C/C(=O)Nc1cc2c(Nc3ccc(OCc4ccccn4)c(Cl)c3)c(C#N)cnc2cc1O[C@H]1CCOC1 [Example 138]
target_desc: SW620 cells
unit_string: nM
GI50: 1780

molecule: CN(C)C/C=C/C(=O)Nc1cc2c(Nc3ccc(F)c(Cl)c3)c(C#N)cnc2cc1O[C@H]1CCOC1 [Example 142]
target_desc: SW620 cells
unit_string: nM
GI50: 2300

molecule: CN(C)C/C=C/C(=O)Nc1cc2c(Nc3ccc(OCc4ccccn4)c(Cl)c3)c(C#N)cnc2cc1OC1CCOC1 (stereo not drawn) [Example 21]
target_desc: SW620 cells
unit_string: nM
GI50: 1780

molecule: C#Cc1cccc(Nc2c(C#N)cnc3cc(O[C@H]4CCOC4)c(NC(=O)/C=C/CN(C)C)cc23)c1 [Example 140]
target_desc: SW620 cells
unit_string: nM
GI50: 2300

molecule: CN(C)C/C=C/C(=O)Nc1cc2c(Nc3ccc(F)c(Cl)c3)c(C#N)cnc2cc1OC1CCOC1 (stereo not drawn) [Example 4]
target_desc: SW620 cells
unit_string: nM
GI50: 3500

---

system: A431 cells; assay: A431 Cell Growth Inhibition Test (MTT Assay); type: cell-based, human; details: Homo sapiens, A-431, 68 h incubation
pIC50: −log10 of the molar value.
# reported pIC50; entries follow
measurement_name: pIC50

molecule: CC(C)(C)NC/C=C/C(=O)Nc1cc2c(Nc3ccc(OCc4ccccn4)c(Cl)c3)c(C#N)cnc2cc1O[C@H]1CCOC1 [Example 153]
measured_result: 7.28

molecule: C#Cc1cccc(Nc2c(C#N)cnc3cc(O[C@H]4CCOC4)c(NC(=O)/C=C/CNC(C)(C)C)cc23)c1 [Example 146]
measured_result: 7.28

molecule: C#Cc1cccc(Nc2c(C#N)cnc3cc(O[C@@H]4CCOC4)c(NC(=O)/C=C/CN(C)C)cc23)c1 [Example 141]
measured_result: 7.30

molecule: CN(C)C/C=C/C(=O)Nc1cc2c(Nc3ccc(OCc4ccccn4)c(Cl)c3)c(C#N)cnc2cc1O[C@@H]1CCOC1 [Example 139]
measured_result: 7.03

molecule: CN(C)C/C=C/C(=O)Nc1cc2c(Nc3ccc(F)c(Cl)c3)c(C#N)cnc2cc1O[C@H]1CCOC1 [Example 142]
measured_result: 7.35

molecule: N#Cc1cnc2cc(O[C@H]3CCOC3)c(NC(=O)/C=C/CN3CCOCC3)cc2c1Nc1ccc(OCc2ccccn2)c(Cl)c1 [Example 152]
measured_result: 7.21

molecule: CN(C)C/C=C/C(=O)Nc1cc2c(Nc3ccc(OCc4ccccc4F)c(Cl)c3)c(C#N)cnc2cc1OC1CCOC1 (stereo not shown) [Example 8]
measured_result: 6.84

---

test system: Sk-Br-3 cells
measurement_name: log10 of GI50 (log10 of the value in nM)

compound: N#Cc1cnc2cc(O[C@H]3CCOC3)c(NC(=O)/C=C/CN3CCCCC3)cc2c1Nc1ccc(OCc2ccccn2)c(Cl)c1
measured_result: 1.23

compound: Cc1ccc(COc2ccc(Nc3c(C#N)cnc4cc(OC5CCOC5)c(NC(=O)/C=C/CN(C)C)cc34)cc2Cl)cc1 (centres unmarked)
measured_result: 1.80

compound: C#Cc1cccc(Nc2c(C#N)cnc3cc(O[C@H]4CCOC4)c(NC(=O)/C=C/CNC(C)(C)C)cc23)c1
measured_result: 2.92

compound: C#Cc1cccc(Nc2c(C#N)cnc3cc(O[C@H]4CCOC4)c(NC(=O)/C=C/CN(C)Cc4ccccc4)cc23)c1
measured_result: 2.81

compound: CN(C)C/C=C/C(=O)Nc1cc2c(Nc3ccc(OCc4ccc(C(C)(C)C)cc4)c(Cl)c3)c(C#N)cnc2cc1OC1CCOC1 (centres unmarked)
measured_result: 2.97

compound: CN(C)C/C=C/C(=O)Nc1cc2c(Nc3ccc(OCc4ccc(Cl)cc4)c(Cl)c3)c(C#N)cnc2cc1OC1CCOC1 (centres unmarked)
measured_result: 1.56

compound: CN(C)C/C=C/C(=O)Nc1cc2c(Nc3ccc(F)c(Cl)c3)c(C#N)cnc2cc1O[C@H]1CCOC1
measured_result: 2.07

compound: C#Cc1cccc(Nc2c(C#N)cnc3cc(O[C@@H]4CCOC4)c(NC(=O)/C=C/CN(C)C)cc23)c1
measured_result: 1.59

compound: CN(C)C/C=C/C(=O)Nc1cc2c(Nc3ccc(OCc4ccccn4)c(Cl)c3)c(C#N)cnc2cc1O[C@@H]1CCOC1
measured_result: 0.72

compound: C#Cc1cccc(Nc2c(C#N)cnc3cc(OC4CCOC4)c(NC(=O)/C=C/CN(C)C)cc23)c1 (centres unmarked)
measured_result: 1.38

compound: CN(C)C/C=C/C(=O)Nc1cc2c(Nc3ccc(F)c(Cl)c3)c(C#N)cnc2cc1OC1CCOC1 (centres unmarked)
measured_result: 2.17

compound: CN(C)C/C=C/C(=O)Nc1cc2c(Nc3cccc(Br)c3)c(C#N)cnc2cc1OC1CCOC1 (centres unmarked)
measured_result: 2.33

compound: N#Cc1cnc2cc(O[C@H]3CCOC3)c(NC(=O)/C=C/CNCCCCCCO)cc2c1Nc1ccc(OCc2ccccn2)c(Cl)c1
measured_result: 1.58

compound: N#Cc1cnc2cc(O[C@H]3CCOC3)c(NC(=O)/C=C/CN3CCOCC3)cc2c1Nc1ccc(OCc2ccccn2)c(Cl)c1
measured_result: 1.28
